biological target: human mGluR4 (Homo sapiens); construct: expressed in transfected cells; host or cells: HEK-293; experiment: mGluR4 Assay on HEK-Expressing Human mGluR4 (FLIPR Ca2+ fluorescence, PAM activity); assay type: cell-based; settings: Table II; human mGluR4 HEK-293 cells, Fluo4-AM/FLIPR, stimulated with glutamate EC25
Sequence (Q14833 33-912): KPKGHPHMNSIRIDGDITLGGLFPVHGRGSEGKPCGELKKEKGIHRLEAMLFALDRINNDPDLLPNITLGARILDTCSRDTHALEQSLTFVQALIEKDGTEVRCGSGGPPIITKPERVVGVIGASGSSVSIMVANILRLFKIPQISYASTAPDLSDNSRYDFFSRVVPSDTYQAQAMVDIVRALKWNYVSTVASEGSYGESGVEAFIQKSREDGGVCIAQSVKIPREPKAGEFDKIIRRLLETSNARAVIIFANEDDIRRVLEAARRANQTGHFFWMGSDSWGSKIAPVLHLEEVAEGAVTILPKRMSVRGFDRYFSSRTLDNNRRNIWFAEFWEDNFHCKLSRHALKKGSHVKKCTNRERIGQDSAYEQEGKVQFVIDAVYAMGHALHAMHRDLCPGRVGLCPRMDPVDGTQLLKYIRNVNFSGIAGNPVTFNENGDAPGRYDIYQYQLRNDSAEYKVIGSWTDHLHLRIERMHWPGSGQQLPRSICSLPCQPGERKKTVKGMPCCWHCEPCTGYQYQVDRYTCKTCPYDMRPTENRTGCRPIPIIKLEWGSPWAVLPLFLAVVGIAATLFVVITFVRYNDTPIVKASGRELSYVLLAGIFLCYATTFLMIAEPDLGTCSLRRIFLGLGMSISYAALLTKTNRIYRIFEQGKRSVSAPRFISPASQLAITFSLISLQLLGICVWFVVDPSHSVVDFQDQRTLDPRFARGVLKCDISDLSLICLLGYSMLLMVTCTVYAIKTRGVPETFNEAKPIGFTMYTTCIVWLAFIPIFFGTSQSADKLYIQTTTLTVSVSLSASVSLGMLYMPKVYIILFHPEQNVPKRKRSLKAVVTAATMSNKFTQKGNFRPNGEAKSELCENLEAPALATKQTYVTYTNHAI
Hi! Could you tag entries with EC50 below 200 nM as Satisfied, and those at or above as Not satisfied? Much appreciated.

Use the examples below as a reference point.
{"columns": ["compound", "label"],
 "data": [
  ["Fc1cnc(Nc2nc3c(s2)COCc2[nH]ncc2-3)nc1", "Satisfied"],
  ["CCc1ccnc(Nc2nc3c(s2)COC(C)c2[nH]ncc2-3)n1 (centres unmarked)", "Satisfied"],
  ["c1cnc(Nc2nc3c(s2)CNCc2[nH]ncc2-3)nc1", "Not satisfied"],
  ["Cc1ccnc(Nc2nc3c(s2)COC(C)c2[nH]ncc2-3)n1 (racemic)", "Satisfied"]
]}

Lab note: confirm whether the reported EC50 for this compound is below 200 nM, equality not counting. compound: Cc1ccnc(Nc2nc3c(s2)COCc2[nH]ncc2-3)n1
Satisfied

* * *

biological target: human mGluR4 (Homo sapiens); construct: expressed in transfected cells; host or cells: HEK-293; experiment: mGluR4 Assay on HEK-Expressing Human mGluR4 (FLIPR Ca2+ fluorescence, PAM activity); assay type: cell-based; settings: Table II; human mGluR4 HEK-293 cells, Fluo4-AM/FLIPR, stimulated with glutamate EC25
reportedEndpoint: pEC50
On this scale, pEC50 is minus log10 of a concentration expressed in M (mol/L).

{"columns": ["compound", "experimentalResult"],
 "data": [
  ["Cc1ccnc(Nc2nc3c(s2)CCC(F)(F)c2[nH]ncc2-3)n1 [Cmpd 34]", 7.25],
  ["Cc1ccnc(Nc2nc3c(s2)CN(C)Cc2[nH]ncc2-3)n1 [Cmpd 28]", 5.62],
  ["Cc1ccnc(Nc2nc3c(s2)CC(F)Cc2[nH]ncc2-3)n1 (centres unmarked) [Cmpd 40]", 7.70],
  ["c1cnc(Nc2nc3c(s2)COCc2[nH]ncc2-3)nc1 [Cmpd 16]", 8.15],
  ["Fc1cnc(Nc2nc3c(s2)CCCc2[nH]ncc2-3)nc1 [Cmpd 29]", 7.41],
  ["c1cnc(Nc2nc3c(s2)Cc2[nH]ncc2-3)nc1 [Cmpd 14]", 5.85],
  ["Cc1ccnc(Nc2nc3c(s2)C(C)OCc2[nH]ncc2-3)n1 (centres unmarked) [Cmpd 23]", 6.73],
  ["Cc1ccnc(Nc2nc3c(s2)CCC(=O)c2[nH]ncc2-3)n1 [Cmpd 36]", 5.82]
]}

Give its pEC50 value. Item: Cc1ccnc(Nc2nc3c(s2)C(C)OC(C)c2[nH]ncc2-3)n1 (centres unmarked) [Cmpd 24]
6.92

Give its pEC50 value. Item: Cc1nc(Nc2nc3c(s2)COC(C)c2[nH]ncc2-3)ncc1F (centres unmarked) [Cmpd 21]
7.57

Give its pEC50 value. Item: COc1ccnc(Nc2nc3c(s2)COCc2[nH]ncc2-3)n1 [Cmpd 19]
7.55

* * *

biological target: human mGluR4 (Homo sapiens); construct: expressed in transfected cells; host or cells: HEK-293; assay: mGluR4 Assay on HEK-Expressing Human mGluR4 (FLIPR Ca2+ fluorescence, PAM activity); format: cell-based; conditions: Table I; human mGluR4 HEK-293 cells, Fluo4-AM/FLIPR, stimulated with glutamate EC25
reportedEndpoint: pEC50
On this scale, pEC50 is minus log10 of a concentration expressed in M (mol/L).

Answered examples (5):
{"columns": ["compound", "pEC50"],
 "data": [
  ["Cc1ccnc(Nc2nc3c(s2)CC(C)c2[nH]ncc2-3)n1 (stereo not shown) [Cmpd 10]", 7.44],
  ["Cc1ccnc(Nc2nc3c(cc(C)c4[nH]ncc43)s2)n1 [Cmpd 8]", 6.89],
  ["c1cnc(Nc2nc3c(s2)C2(CC2)Cc2[nH]ncc2-3)nc1 [Cmpd 12]", 7.46],
  ["Fc1cnc(Nc2nc3c(s2)C2(CC2)Cc2[nH]ncc2-3)nc1 [Cmpd 13]", 7.03],
  ["CC1Cc2sc(Nc3ncccn3)nc2-c2cn[nH]c21 (stereo not shown) [Cmpd 9]", 8.70]
]}

Give its pEC50 value. Item: Brc1cc2sc(Nc3ncccn3)nc2c2cn[nH]c12 [Cmpd 6]
9.00

Give its pEC50 value. Item: Cc1ccnc(Nc2nc3c(ccc4[nH]ncc43)s2)n1 [Cmpd 2]
7.55

Give its pEC50 value. Item: Clc1cc2sc(Nc3ncccn3)nc2c2cn[nH]c12 [Cmpd 7]
8.70

Give its pEC50 value. Item: c1cnc(Nc2nc3c(ccc4[nH]ncc43)s2)nc1 [Cmpd 3]
8.05

Give its pEC50 value. Item: Cc1ccnc(Nc2nc3c(s2)C(C)(C)Cc2[nH]ncc2-3)n1 [Cmpd 1]
6.49
